MEASURED_METRIC: melting point

>>> observed_value("CS(=O)(=O)c1ccc(-c2nc3sccn3c2CN2CCCCC2)cc1")
"142.6 to 144 °C"
>>> observed_value("CS(=O)(=O)c1ccc(-c2nc3sccn3c2CN2CCOCC2)cc1")
"203 to 206 °C"
>>> observed_value("CS(=O)(=O)c1ccc(-c2nc3sccn3c2CN(CCO)CCO)cc1")
"168.8 to 170 °C"
>>> observed_value("CCCN(CCC)Cc1c(-c2ccc(S(C)(=O)=O)cc2)nc2sccn12")
"165 to 167 °C"
>>> observed_value("CCN(CC)Cc1c(-c2ccc(S(C)(=O)=O)cc2)nc2sccn12")
"132 to 135 °C"
>>> observed_value("CS(=O)(=O)c1ccc(-c2nc3sccn3c2CN2CCCC2)cc1")
"144 to 146 °C"

Moving on to another compound below.
Task: Can you share its melting point? I mean this compound: CN(C)Cc1c(-c2ccc(S(C)(=O)=O)cc2)nc2sccn12
Output: 123 to 124 °C

----------
TARGET_OR_TEST_SYSTEM: ovine COX-2 (Ovis aries, UniProt P79208)
pIC50: −log10 of the molar value.
MEASURED_METRIC: pIC50

>>> observed_value("CN(C)Cc1c(-c2ccc(S(C)(=O)=O)cc2)nc2sccn12 [Compound 6a]")
7.10
>>> observed_value("CCN(CC)Cc1c(-c2ccc(S(C)(=O)=O)cc2)nc2sccn12 [Compound 6b]")
6.92
>>> observed_value("CS(=O)(=O)c1ccc(-c2nc3sccn3c2CN2CCCC2)cc1 [Compound 6d]")
7.05
>>> observed_value("CS(=O)(=O)c1ccc(-c2nc3sccn3c2CN(CCO)CCO)cc1 [Compound 6g]")
6.96
>>> observed_value("CS(=O)(=O)c1ccc(-c2nc3sccn3c2CN2CCOCC2)cc1 [Compound 6f]")
7.00

----------
TARGET_OR_TEST_SYSTEM: ovine COX-2 (Ovis aries, UniProt P79208)
Construct: purchased Cayman chemical, MI, USA
Sequence (P79208 17-603): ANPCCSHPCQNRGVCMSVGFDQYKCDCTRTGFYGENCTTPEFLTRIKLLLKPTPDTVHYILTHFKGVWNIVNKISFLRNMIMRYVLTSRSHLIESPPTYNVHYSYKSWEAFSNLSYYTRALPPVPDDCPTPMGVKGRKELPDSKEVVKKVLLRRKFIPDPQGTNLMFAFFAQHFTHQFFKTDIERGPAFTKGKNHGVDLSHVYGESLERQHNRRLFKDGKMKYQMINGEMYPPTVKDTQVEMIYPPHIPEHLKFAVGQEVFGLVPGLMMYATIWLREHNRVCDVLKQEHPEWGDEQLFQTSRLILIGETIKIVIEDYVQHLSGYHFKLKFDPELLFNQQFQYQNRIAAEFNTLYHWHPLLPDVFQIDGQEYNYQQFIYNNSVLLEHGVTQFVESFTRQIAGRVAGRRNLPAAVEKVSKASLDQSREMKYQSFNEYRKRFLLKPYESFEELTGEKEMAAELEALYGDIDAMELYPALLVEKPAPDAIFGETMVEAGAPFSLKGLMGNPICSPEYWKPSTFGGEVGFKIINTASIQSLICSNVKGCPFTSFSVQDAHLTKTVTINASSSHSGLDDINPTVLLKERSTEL
ASSAY_PROTOCOL: biochemical
PROTOCOL_CONDITIONS: COX-1 IC50/COX-2 IC50
MEASURED_METRIC: Selectivity index (SI)

Below, 2 compounds whose answers are already recorded.
>>> observed_value("CS(=O)(=O)c1ccc(-c2nc3sccn3c2CN2CCCCC2)cc1")
313.1
>>> observed_value("CS(=O)(=O)c1ccc(-c2nc3sccn3c2CN2CCOCC2)cc1")
551.0

1 = CCN(CC)Cc1c(-c2ccc(S(C)(=O)=O)cc2)nc2sccn12
2 = CS(=O)(=O)c1ccc(-c2nc3sccn3c2CN2CCCC2)cc1
Task: Pick one: 1 or 2 . Which one has the lower reported Selectivity index (SI)? Field: selected label. Fill in the label of the entry you choose.
Output: 2

----------
TARGET_OR_TEST_SYSTEM: ovine COX-1 (Ovis aries)
Sequence (P05979 25-600): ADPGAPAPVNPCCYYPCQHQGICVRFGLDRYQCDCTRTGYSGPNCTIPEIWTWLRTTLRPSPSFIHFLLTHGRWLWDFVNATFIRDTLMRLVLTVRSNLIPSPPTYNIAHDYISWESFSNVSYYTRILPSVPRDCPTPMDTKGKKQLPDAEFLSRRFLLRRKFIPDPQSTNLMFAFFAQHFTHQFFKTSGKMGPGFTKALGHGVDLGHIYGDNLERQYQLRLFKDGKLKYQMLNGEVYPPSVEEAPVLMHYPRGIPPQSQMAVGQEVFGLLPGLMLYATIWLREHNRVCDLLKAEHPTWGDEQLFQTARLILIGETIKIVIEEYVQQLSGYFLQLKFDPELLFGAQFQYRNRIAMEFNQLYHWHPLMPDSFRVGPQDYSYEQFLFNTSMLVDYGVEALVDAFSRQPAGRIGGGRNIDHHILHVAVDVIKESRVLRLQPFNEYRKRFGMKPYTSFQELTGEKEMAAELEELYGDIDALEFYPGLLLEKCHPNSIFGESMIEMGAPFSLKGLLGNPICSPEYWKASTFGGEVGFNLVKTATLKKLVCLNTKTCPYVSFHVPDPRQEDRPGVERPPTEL
MEASURED_METRIC: pIC50
Hey, just a heads up that pIC50 is the negative log base 10 of the concentration in molar.

Task: Which measured pIC50 belongs to CCN(CC)Cc1c(-c2ccc(S(C)(=O)=O)cc2)nc2sccn12 , tested on ovine COX-1 (Ovis aries)?
Output: 4.31
